These measurements were taken from patent US20230287125A1.

EXPERIMENTAL_SYSTEM: T1, human PD-L1-Fc protein (human, UniProt Q9NZQ7 19-238)
T1 construct: coating antigen of the ELISAs; also called rhPD-L1-Fc; not shown: Fc
T1 sequence (Q9NZQ7 19-238 limits assumed): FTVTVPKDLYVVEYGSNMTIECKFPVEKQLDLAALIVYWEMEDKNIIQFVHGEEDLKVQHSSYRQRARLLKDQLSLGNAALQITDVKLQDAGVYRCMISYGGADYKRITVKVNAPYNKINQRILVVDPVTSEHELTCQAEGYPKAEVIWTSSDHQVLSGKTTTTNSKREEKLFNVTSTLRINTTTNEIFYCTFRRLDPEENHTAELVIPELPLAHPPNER
PROTOCOL: ELISA, antibody titrated on coated human PD-L1-Fc, OD 450nm; upper right panel

# BINDER, UNITS_OF_MEASURE, EC50
records = [
    ("Hu89C10H8-9 (antibody, V domains shown, humanized) VH: EVQLVESGGGLVKPGGSLRLSCAASGFTFSNYWMTWVRQAPGKGLEWVASITNTGSSTFYPDSVKGRFTISRDNAKNSLYLQMNSLRAEDTAVYYCARDTTIAPFDYWGQGTMVTVSS VL: DIQMTQSPSSLSASVGDRVTITCKASQNLNEYLNWYQQKPGKAPKRLIYKTNTLQAGIPSRFSGSGSGIDYTLTISSLQPEDFATYYCSQYNSGNTFGQGTKLEIK", "ng/mL", 8.42),
    ("Hu67F3G7-8 (antibody, V domains shown, humanized) VH: EVQLVQSGAEVKKPGASVKVSCKASGYIFTDFWVSWVRQAPGQGLEWIGEIYPNSGVSRYNEKFKGRVTMTVDKSISTAYMELSRLRSDDTAVYYCTKYFGYTYWFGYWGQGTLVTVSS VL: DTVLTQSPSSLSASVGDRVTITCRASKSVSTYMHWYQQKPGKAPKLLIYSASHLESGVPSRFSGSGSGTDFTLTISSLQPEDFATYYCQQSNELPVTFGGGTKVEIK", "ng/mL", 12.5),
    ("Hu89C10H8-12 (antibody, V domains shown, humanized) VH: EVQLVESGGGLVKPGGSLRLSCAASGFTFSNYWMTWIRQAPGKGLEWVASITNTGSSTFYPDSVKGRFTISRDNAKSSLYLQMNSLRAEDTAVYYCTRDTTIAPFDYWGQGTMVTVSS VL: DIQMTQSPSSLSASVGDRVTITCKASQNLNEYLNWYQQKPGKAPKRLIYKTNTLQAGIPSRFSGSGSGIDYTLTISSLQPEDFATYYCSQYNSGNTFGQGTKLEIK", "ng/mL", 7.03),
]
